A collection of compounds and their measured residual activity
target: Phosphorylase b kinase gamma catalytic chain, liver/testis isoform (Homo sapiens) (UniProt P15735); settings: at 10 µM
Sequence (P15735 whole entry, canonical isoform): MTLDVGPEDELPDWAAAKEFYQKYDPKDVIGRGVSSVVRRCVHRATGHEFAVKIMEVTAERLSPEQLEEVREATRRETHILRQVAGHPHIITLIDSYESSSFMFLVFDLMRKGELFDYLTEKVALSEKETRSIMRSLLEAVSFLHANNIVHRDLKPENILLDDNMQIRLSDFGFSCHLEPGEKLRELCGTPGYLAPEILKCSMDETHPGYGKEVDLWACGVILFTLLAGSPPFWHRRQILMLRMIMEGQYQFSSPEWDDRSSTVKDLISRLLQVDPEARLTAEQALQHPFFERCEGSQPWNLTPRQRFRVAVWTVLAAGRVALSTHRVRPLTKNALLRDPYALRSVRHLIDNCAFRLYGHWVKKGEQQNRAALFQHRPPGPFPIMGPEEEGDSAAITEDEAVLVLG
Respond numerically; units are % and should not be typed.

The cases that follow already have their residual activity on record.
Query: Consider the compound shown here: Cn1cnc2cc3c(Nc4cccc(Br)c4)ncnc3cc21 What is its recorded residual activity?
Reply: 98

Query: How about this compound: Nc1n[nH]c2nnc(-c3c(-c4ccccc4)nn4ccccc34)cc12
Reply: 98

Query: How about this compound: O=[N+]([O-])c1ccc(-c2nc(-c3ccc(F)cc3)c(-c3ccncc3)[nH]2)cc1
Reply: 91

Query: How about this compound: Oc1ccc(-c2nc(-c3ccc(F)cc3)c(-c3ccncc3)[nH]2)cc1
Reply: 98

Query: How about this compound: O=C1Nc2cc(Br)ccc2/C1=C1/Nc2ccccc2/C1=N\O
Reply: 24

Next:
Query: Consider the compound shown here: O=C1NC(=O)/C(=C\c2ccc3nccnc3c2)S1 What is its recorded residual activity?
Reply: 50

Query: How about this compound: NC(=O)c1ccc2[nH]c(-c3ccc(Oc4ccc(Cl)cc4)cc3)nc2c1
Reply: 80

Query: How about this compound: Cc1ccc(S(=O)(=O)/C=C/C#N)cc1
Reply: 111

Query: How about this compound: O=C(Nc1cccc(Nc2nccc(Nc3cccc(C(F)(F)F)c3)n2)c1)C1CC1
Reply: 80

Query: How about this compound: O=C1Nc2ccc(Br)cc2/C1=C\c1cc2c([nH]1)CCCC2
Reply: 78

Query: How about this compound: CCN(CC)CCCCN1c2ccccc2Oc2ccc(Cl)cc21
Reply: 122

Query: How about this compound: c1ccc(-c2n[nH]cc2-c2ccnc3ccccc23)nc1
Reply: 102

Query: How about this compound: O=C(O)c1ccc2c3c1cccc3c(=O)n1c3ccccc3nc21
Reply: 72

Query: How about this compound: Cc1ccc(NC2=CC(=O)c3sc(C)nc3C2=O)cc1
Reply: 92

Query: How about this compound: Cn1cc(/C=C2\C(=O)Nc3ccc(S(N)(=O)=O)cc32)c2ccccc21
Reply: 9

Query: How about this compound: O=C1NC(=O)/C(=C/c2ccc3c(c2)OC(F)(F)O3)S1
Reply: 94

Query: How about this compound: Cc1cc(Nc2nc(-c3ccccc3)nc3ccccc23)n[nH]1
Reply: 35

====

target: Misshapen-like kinase 1 (Homo sapiens); conditions: at 1 µM
Measurement kind: residual activity (%)
Respond numerically; units are % and should not be typed.

Query: So what residual activity did CN(C)CCCn1cc(C2=C(c3c[nH]c4ccccc34)C(=O)NC2=O)c2ccccc21 get with Misshapen-like kinase 1 (Homo sapiens)?
Reply: 84

Next:
Query: So what residual activity did Cc1nc(-c2ccccc2)c(-c2ccncc2)o1 get with Misshapen-like kinase 1 (Homo sapiens)?
Reply: 118

Query: How about this molecule: N#CCCc1ccc2c(c1)-c1[nH]c3ccc([N+](=O)[O-])cc3c1CC(=O)N2
Reply: 38

Query: How about this molecule: COc1ccc(CNc2nc(N(CCO)CCO)nc3c2ncn3C(C)C)cc1
Reply: 103

Query: How about this molecule: CCN(CC)C(=O)c1ccc(Nc2nc(OCC3CCCCC3)c3nc[nH]c3n2)cc1
Reply: 94

Query: How about this molecule: Cn1cc(/C=C2\C(=O)Nc3ccc(S(N)(=O)=O)cc32)c2ccccc21
Reply: 56

Query: How about this molecule: Cc1cncc2cccc(S(=O)(=O)N3CCCN(C(=O)CN)C[C@H]3C)c12
Reply: 91

Query: How about this molecule: COc1ccc(C(=O)Nc2sc3c(c2C(N)=O)CCCC3)cc1OC
Reply: 95

Query: How about this molecule: CO[C@H]1C[C@@H]2CC[C@@H](C)[C@@](O)(O2)C(=O)C(=O)N2CCCC[C@H]2C(=O)O[C@H]([C@H](C)C[C@@H]2CC[C@@H](O)[C@H](OC)C2)CC(=O)[C@H](C)/C=C(\C)[C@@H](O)[C@@H](OC)C(=O)[C@H](C)C[C@H](C)/C=C/C=C/C=C/1C
Reply: 81

Query: How about this molecule: N#Cc1cnc2cnc(NCc3cccnc3)cc2c1Nc1ccc(F)c(Cl)c1
Reply: 93

Query: How about this molecule: COc1cccc(-c2cc(=O)c3ccccc3o2)c1N
Reply: 98

Query: How about this molecule: Cn1nc2c3c(cccc31)C(=O)c1ccccc1-2
Reply: 93

Query: How about this molecule: NC(=O)c1ccc2[nH]c(-c3ccc(Oc4ccc(Cl)cc4)cc3)nc2c1
Reply: 91

Query: How about this molecule: CC(C)n1cnc2c(NCc3ccccc3)nc(NCCCO)nc21
Reply: 108

Query: How about this molecule: Ic1cccc(CSc2nnc(-c3ccncc3)o2)c1
Reply: 98

Query: How about this molecule: O=Nc1c(-c2c(O)[nH]c3ccccc23)[nH]c2ccccc12
Reply: 54

====

biological target: Tyrosine-protein kinase ABL1 (Homo sapiens) (UniProt P00519); settings: at 1 µM
Sequence (P00519 whole entry): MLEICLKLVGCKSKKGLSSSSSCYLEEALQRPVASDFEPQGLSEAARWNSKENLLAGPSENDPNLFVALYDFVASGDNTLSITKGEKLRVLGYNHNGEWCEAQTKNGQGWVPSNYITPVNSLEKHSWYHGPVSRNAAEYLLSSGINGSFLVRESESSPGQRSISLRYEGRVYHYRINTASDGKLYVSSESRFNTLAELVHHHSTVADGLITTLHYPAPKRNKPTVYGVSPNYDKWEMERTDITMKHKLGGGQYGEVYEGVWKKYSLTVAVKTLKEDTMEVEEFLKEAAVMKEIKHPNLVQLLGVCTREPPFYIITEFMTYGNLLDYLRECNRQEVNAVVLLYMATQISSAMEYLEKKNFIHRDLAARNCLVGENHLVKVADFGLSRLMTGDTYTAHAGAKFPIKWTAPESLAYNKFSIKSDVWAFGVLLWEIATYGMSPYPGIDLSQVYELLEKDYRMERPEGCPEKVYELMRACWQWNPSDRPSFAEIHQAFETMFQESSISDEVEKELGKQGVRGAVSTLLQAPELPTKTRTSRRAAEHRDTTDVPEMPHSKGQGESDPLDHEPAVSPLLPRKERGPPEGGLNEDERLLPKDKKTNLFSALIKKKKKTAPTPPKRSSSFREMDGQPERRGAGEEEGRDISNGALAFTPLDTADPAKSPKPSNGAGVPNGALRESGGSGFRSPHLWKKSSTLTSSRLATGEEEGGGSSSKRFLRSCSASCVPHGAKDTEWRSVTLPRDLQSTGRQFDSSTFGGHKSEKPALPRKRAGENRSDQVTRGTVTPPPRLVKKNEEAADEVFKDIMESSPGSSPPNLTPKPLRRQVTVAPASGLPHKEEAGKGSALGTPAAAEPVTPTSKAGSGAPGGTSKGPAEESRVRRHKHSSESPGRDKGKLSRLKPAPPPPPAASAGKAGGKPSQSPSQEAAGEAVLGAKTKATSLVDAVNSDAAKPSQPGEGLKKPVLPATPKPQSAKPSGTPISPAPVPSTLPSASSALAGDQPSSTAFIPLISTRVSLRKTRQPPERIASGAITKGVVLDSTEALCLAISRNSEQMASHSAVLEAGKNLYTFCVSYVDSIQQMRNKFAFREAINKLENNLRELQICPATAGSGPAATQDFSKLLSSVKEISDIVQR
Measurement kind: residual activity

The cases that follow already have their residual activity on record.
Query: So what residual activity did Cc1cc(Nc2nc(-c3ccccc3)nc3ccccc23)n[nH]1 get with Tyrosine-protein kinase ABL1 (Homo sapiens) (UniProt P00519)?
Reply: 54%

Query: How about this molecule: Cc1cncc2cccc(S(=O)(=O)N3CCCN(C(=O)CN)C[C@H]3C)c12
Reply: 88%

Query: How about this molecule: N#CC(C#N)=C(N)/C(C#N)=C/c1ccc(O)cc1
Reply: 87%

Next:
Query: So what residual activity did Nc1cccc(-c2cc3c(Oc4cccc(O)c4)ncnc3[nH]2)c1 get with Tyrosine-protein kinase ABL1 (Homo sapiens) (UniProt P00519)?
Reply: -6%

Query: How about this molecule: COc1cc2ncnc(Nc3ccc(Oc4ccccc4)cc3)c2cc1OC
Reply: 61%

Query: How about this molecule: COc1cc2ncnc(Nc3ccc(NC(=O)c4ccccc4)cc3)c2cc1OC
Reply: 101%

Query: How about this molecule: Cc1ccc(NC2=CC(=O)c3sc(C)nc3C2=O)cc1
Reply: 99%

Query: How about this molecule: CC(C)n1cnc2c(NCc3ccccc3)nc(NCCCO)nc21
Reply: 96%

Query: How about this molecule: CN(C)c1ccc(/C=C2\C(=O)Nc3ccccc32)cc1
Reply: 100%

Query: How about this molecule: O=c1c2ccccc2[nH]c(=S)n1CCN1CCC(=C(c2ccc(F)cc2)c2ccc(F)cc2)CC1
Reply: 86%

Query: How about this molecule: CCN(CC)C(=O)c1ccc(Nc2nc(OCC3CCCCC3)c3nc[nH]c3n2)cc1
Reply: 46%

====

target: Protein kinase C zeta type (Homo sapiens); conditions: at 10 µM
Measurement kind: residual activity (%)
Respond numerically; units are % and should not be typed.

The cases that follow already have their residual activity on record.
Query: Consider the molecule shown here: Oc1c2ccccc2c2c3c(cccc13)N=N2 What is its recorded residual activity?
Reply: 106

Query: How about this molecule: O=C(O)c1ccc2c3c1cccc3c(=O)n1c3ccccc3nc21
Reply: 95

Query: How about this molecule: CC(C)n1cnc2c(NCc3ccccc3)nc(NCCCO)nc21
Reply: 107

Query: How about this molecule: C[C@@H](N)[C@H]1CC[C@H](C(=O)Nc2ccncc2)CC1
Reply: 76

Query: How about this molecule: O=C1NC(=O)c2cc(Nc3ccc(F)cc3)c(Nc3ccc(F)cc3)cc21
Reply: 101

Could you now look at the following molecule, please?
Query: Consider the molecule shown here: Oc1ccc(Nc2nc(-c3ccc(Cl)cc3)cs2)cc1 What is its recorded residual activity?
Reply: 87

====

target: Tyrosine-protein kinase Tec (Homo sapiens) (UniProt P42680); details: at 1 µM
Sequence (P42680 whole entry): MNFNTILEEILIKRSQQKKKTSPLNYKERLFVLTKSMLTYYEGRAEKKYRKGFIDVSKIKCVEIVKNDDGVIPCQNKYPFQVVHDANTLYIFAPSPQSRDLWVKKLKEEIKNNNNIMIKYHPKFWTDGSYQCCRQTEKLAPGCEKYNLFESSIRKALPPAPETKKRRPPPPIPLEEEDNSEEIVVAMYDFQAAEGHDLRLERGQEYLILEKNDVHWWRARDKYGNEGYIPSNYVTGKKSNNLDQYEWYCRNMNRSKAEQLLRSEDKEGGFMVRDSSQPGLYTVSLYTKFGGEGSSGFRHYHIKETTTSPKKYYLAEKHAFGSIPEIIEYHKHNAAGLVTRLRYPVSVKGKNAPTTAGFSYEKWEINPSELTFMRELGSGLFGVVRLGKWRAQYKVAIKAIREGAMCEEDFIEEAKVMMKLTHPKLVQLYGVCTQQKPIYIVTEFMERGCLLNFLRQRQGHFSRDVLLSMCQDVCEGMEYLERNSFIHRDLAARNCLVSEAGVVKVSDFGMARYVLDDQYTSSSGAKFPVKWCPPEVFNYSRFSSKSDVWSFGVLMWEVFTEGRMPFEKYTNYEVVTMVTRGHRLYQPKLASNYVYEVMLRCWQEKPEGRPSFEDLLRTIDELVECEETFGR
residual activity of 70% or higher: t. Under 70%: f.

Reference set (3 entries):
Query: Test whether the compound CO[C@@H]1[C@H](N(C)C(=O)c2ccccc2)C[C@H]2O[C@]1(C)n1c3ccccc3c3c4c(c5c6ccccc6n2c5c31)C(=O)NC4 records residual activity of 70% or higher.
Reply: t

Query: How about this compound: Oc1ccc(-c2nc(-c3ccc(F)cc3)c(-c3ccncc3)[nH]2)cc1
Reply: t

Query: How about this compound: O=C1Nc2ccc(Br)cc2/C1=C\c1cc2c([nH]1)CCCC2
Reply: t

Then there is this compound:
Query: Test whether the compound COc1cc2ncnc(Nc3ccc(Oc4ccccc4)cc3)c2cc1OC records residual activity of 70% or higher.
Reply: f

====

molecular target: Ephrin type-A receptor 8 (Homo sapiens) (UniProt P29322); conditions: at 10 µM
Sequence (P29322 whole entry): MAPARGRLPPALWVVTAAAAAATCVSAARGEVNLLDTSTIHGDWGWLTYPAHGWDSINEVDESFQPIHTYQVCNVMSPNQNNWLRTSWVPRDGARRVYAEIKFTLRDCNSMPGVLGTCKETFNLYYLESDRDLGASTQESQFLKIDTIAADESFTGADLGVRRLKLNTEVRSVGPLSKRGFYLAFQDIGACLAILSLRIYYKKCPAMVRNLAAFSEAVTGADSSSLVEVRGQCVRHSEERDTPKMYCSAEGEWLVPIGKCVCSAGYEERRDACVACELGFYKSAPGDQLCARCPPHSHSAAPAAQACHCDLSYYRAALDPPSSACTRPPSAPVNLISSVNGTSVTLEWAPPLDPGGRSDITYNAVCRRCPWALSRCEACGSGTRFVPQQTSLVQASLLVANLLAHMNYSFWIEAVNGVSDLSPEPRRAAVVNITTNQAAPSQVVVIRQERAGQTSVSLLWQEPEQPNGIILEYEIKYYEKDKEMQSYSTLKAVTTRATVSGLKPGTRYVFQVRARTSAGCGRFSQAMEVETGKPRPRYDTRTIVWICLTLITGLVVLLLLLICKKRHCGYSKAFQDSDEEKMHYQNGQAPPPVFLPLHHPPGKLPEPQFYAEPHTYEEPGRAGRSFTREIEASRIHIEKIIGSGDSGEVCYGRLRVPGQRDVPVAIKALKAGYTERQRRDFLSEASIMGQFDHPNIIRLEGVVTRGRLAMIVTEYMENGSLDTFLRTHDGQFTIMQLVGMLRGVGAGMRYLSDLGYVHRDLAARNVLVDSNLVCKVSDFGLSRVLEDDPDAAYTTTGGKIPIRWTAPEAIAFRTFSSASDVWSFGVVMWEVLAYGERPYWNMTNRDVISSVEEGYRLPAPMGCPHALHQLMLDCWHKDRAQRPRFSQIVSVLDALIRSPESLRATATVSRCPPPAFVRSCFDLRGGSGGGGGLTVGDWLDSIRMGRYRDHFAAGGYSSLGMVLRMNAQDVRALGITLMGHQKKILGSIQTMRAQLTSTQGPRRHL
Measurement kind: residual activity

The cases that follow already have their residual activity on record.
Query: So what residual activity did COc1cc2ncnc(Nc3ccc(Oc4ccccc4)cc3)c2cc1OC get with Ephrin type-A receptor 8 (Homo sapiens) (UniProt P29322)?
Reply: 65%

Query: How about this compound: CC(=O)c1ccc(N2CCOCC2)cc1O
Reply: 93%

Query: How about this compound: CC(C)n1cnc2c(NCc3ccccc3)nc(NCCCO)nc21
Reply: 94%

Query: How about this compound: COc1ccc(OC)c2c(=S)c3ccccc3[nH]c12
Reply: 100%

Query: How about this compound: Cc1ccc(S(=O)(=O)/C=C/C#N)cc1
Reply: 102%

Next:
Query: So what residual activity did CC#CC(=O)Nc1cc2c(Nc3ccc(F)c(Cl)c3)ncnc2cn1 get with Ephrin type-A receptor 8 (Homo sapiens) (UniProt P29322)?
Reply: 93%
